The measured values listed here are drawn from ChEMBL document CHEMBL2074160.

target.desc: Solute carrier organic anion transporter family member 1A1 (Rattus norvegicus, UniProt P46720)
Sequence (P46720 whole entry): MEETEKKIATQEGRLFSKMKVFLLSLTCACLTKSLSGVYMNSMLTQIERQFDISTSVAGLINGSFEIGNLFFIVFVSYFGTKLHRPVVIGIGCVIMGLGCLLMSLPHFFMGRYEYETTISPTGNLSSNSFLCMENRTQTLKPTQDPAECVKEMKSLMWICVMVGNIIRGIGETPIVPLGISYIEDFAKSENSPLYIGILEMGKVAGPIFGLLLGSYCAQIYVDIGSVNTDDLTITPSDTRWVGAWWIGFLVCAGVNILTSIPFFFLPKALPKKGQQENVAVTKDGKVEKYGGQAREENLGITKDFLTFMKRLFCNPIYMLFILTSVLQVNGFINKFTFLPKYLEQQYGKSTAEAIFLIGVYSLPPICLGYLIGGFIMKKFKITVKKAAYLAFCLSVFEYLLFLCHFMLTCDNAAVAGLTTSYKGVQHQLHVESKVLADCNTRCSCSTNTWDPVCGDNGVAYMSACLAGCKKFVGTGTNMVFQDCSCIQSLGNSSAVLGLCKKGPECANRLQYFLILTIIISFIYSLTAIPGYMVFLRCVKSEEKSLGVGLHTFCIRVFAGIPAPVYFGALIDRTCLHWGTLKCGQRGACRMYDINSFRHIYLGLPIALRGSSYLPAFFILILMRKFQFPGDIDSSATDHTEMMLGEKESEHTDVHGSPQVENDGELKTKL
run.description: TP_TRANSPORTER: uptake in Xenopus laevis oocytes
Type: functional, cell-based, Oocyte
settings: Xenopus laevis oocytes
reported.metric: Km (mM)
Value expressed in mM; do not type the unit.

Data request: Any idea what Km was measured for `C[C@@H]1O[C@@H](O[C@H]2C[C@@H](O)[C@]3(CO)[C@H]4[C@H](O)C[C@]5(C)[C@@H](C6=CC(=O)OC6)CC[C@]5(O)[C@@H]4CC[C@]3(O)C2)[C@H](O)[C@H](O)[C@H]1O` ?
Data returned: 1.7

* * *

target.desc: Solute carrier organic anion transporter family member 1A1 (Rattus norvegicus, UniProt P46720)
run.description: TP_TRANSPORTER: inhibition of Ouabain uptake (Ouabain: 100 uM, BSP: 100 uM) in Xenopus laevis oocytes
Type: functional, cell-based, Oocyte
Design: scale not given: the % may be the effect or the level left
settings: probe Ouabain (100 uM), read-out: Activity
reported.metric: activity at 100 µM (%)
Numeric answer only, unit % assumed.

Data request: If you can, please state the reported activity at 100 µM value of O=C1OC(c2ccc(O)c(S(=O)(=O)O)c2)(c2ccc(O)c(S(=O)(=O)O)c2)c2c(Br)c(Br)c(Br)c(Br)c21 [SULFOBROMOPHTHALEIN SODIUM] .
Data returned: 6
